tested on: hsTEAD1 (209-426) (Homo sapiens (Human), UniProt P28347)
Sequence (P28347 209-426): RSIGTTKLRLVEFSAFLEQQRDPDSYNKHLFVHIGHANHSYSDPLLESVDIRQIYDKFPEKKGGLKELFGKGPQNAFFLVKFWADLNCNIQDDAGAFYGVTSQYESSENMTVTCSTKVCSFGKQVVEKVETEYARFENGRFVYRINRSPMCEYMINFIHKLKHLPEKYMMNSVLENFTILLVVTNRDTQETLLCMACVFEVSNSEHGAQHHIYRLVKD
test summary: Surface Plasmon Resonance (SPR) assay
Assay type: binding
run parameters: Biacore 4000, 15° C., 1:1 Langmuir model, read-out: KD TEAD1 (209-426)
// boundary case: Kd equal to 1000 nM maps to No; strictly smaller maps to Yes

compound	group
Cn1cc2c3cc(C(=O)NCCOCCOCCNC(=O)COCCOCCOCC(=O)Nc4cccc5c4C(=O)N(C4CCC(=O)NC4=O)C5=O)ccc3n(-c3ccc(C(F)(F)F)cc3)c2n1 (centres unmarked) [Compound 2]	No
Cc1ncsc1-c1ccc(CNC(=O)[C@@H]2C[C@@H](O)CN2C(=O)[C@@H](NC(=O)COCCOCCOCCOCC(=O)NCCOCCOCCNC(=O)c2ccc3c(c2)c2cn(C)nc2n3-c2ccc(C(F)(F)F)cc2)C(C)(C)C)cc1 [Compound 3]	Yes
Cn1cc2c3cc(C(=O)NCCOCCOCCNC(=O)CCCCCCNc4cccc5c4C(=O)N(C4CCC(=O)NC4=O)C5=O)ccc3n(-c3ccc(C(F)(F)F)cc3)c2n1 (centres unmarked) [Compound 6]	No
